Values from patent US20250101052A1

Reported values of Cmax for individual entries
Assay: Detection of oral plasma exposure in rats
Type: in vivo
Conditions: rat, SD rats, p.o. 10 mg/kg
Recorded endpoint: Cmax (ng/mL)

1) CCc1cc(Nc2ncc(Cl)c(Nc3ccc(C)c(C)c3P(C)(C)=O)n2)c(OC)cc1N1CCC2(CC1)CC(N(C)C)C2 | 866
2) CCc1cc(Nc2ncc(Cl)c(Nc3ccc(C)c(C)c3P(C)(C)=O)n2)c(OC)cc1N1CC2(CCN(C)CC2)C1 | 505
3) COc1cc(N2CCC(N3CCN(C)CC3)CC2)c(C)cc1Nc1ncc(Cl)c(Nc2cc(C)c(C)cc2P(C)(C)=O)n1 | 1190
4) CCc1cc(Nc2ncc(Cl)c(Nc3ccc(C)c(C)c3P(C)(C)=O)n2)c(OC)cc1N1CCC(N2C[C@H]3CC[C@@H](C2)N3C)CC1 | 1220

----------
Assay: Detection of oral plasma exposure in rats
Type: in vivo
Conditions: rat, SD rats, p.o. 10 mg/kg, read-out: AUCINF—obs
Recorded endpoint: AUC(0-inf) (ng·h/mL)

1. CCc1cc(Nc2ncc(Cl)c(Nc3ccc(C)c(C)c3P(C)(C)=O)n2)c(OC)cc1N1CCC2(CC1)CC(N(C)C)C2 [Compound 6] | 17700

----------
Assay: Stability testing of liver microsomes, monkey
Assay type: in vitro ADME
Conditions: pH 7.41; monkey liver microsomes
Recorded endpoint: CLint scaled at 1 µM (L/h/kg)

1. CCc1cc(Nc2ncc(Cl)c(Nc3ccc(C)c(C)c3P(C)(C)=O)n2)c(OC)cc1N1CC2(CCN(C)CC2)C1 | 1.66
2. CCc1cc(Nc2ncc(Cl)c(Nc3ccc(C)c(C)c3P(C)(C)=O)n2)c(OC)cc1N1CCC(N2CCN(C)CC2)CC1 [Comparative Compound A, reference compound] | 3.12

----------
Experiment: Detection of oral plasma exposure in rats
Type: in vivo
Details: rat, SD rats, p.o. 10 mg/kg
Reported values of half-life for individual entries
Recorded endpoint: half-life (min)

1. CCc1cc(Nc2ncc(Cl)c(Nc3ccc(C)c(C)c3P(C)(C)=O)n2)c(OC)cc1N1CCC2(CC1)CC(N(C)C)C2 | 583
2. CCc1cc(Nc2ncc(Cl)c(Nc3ccc(C)c(C)c3P(C)(C)=O)n2)c(OC)cc1N1CC2(CCN(C)CC2)C1 | 569
3. CCc1cc(Nc2ncc(Cl)c(Nc3ccc(C)c(C)c3P(C)(C)=O)n2)c(OC)cc1N1CCC(N2C[C@H]3CC[C@@H](C2)N3C)CC1 | 568

----------
Target: EGFR^L858R/T790M/C797S kinase (Homo sapiens (Human), UniProt P00533, C797S/L858R/T790M)
Sequence (P00533 25-1210 T790M/C797S/L858R): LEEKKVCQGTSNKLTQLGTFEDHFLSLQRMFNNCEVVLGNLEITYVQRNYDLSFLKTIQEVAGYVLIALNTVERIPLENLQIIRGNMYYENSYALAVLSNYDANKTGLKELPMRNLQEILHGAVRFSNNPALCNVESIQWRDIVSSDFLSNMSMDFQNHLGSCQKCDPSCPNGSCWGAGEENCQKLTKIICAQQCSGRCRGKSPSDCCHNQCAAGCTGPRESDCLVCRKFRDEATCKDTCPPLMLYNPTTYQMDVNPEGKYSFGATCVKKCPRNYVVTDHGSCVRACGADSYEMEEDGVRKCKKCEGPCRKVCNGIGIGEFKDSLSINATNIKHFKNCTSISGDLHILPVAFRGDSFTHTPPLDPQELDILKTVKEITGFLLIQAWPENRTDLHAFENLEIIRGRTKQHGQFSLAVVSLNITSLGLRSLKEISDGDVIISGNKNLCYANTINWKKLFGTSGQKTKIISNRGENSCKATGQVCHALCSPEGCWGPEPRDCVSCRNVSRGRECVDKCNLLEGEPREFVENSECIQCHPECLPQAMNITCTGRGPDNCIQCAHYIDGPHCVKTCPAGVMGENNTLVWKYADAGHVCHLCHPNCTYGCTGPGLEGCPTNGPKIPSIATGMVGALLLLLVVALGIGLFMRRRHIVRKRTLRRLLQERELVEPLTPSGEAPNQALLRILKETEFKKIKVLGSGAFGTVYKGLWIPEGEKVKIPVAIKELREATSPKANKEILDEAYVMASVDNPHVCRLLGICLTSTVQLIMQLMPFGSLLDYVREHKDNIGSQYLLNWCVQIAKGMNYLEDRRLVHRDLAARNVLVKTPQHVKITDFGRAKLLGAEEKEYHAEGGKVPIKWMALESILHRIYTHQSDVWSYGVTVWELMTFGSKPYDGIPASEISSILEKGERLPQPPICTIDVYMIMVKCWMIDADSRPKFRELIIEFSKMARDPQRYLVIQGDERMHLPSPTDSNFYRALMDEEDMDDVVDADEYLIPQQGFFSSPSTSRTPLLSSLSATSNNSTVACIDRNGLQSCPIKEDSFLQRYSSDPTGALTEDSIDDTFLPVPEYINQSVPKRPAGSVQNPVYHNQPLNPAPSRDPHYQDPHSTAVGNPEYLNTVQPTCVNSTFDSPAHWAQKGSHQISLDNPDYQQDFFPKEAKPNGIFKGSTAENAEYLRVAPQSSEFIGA
Test: EGFR^L858R/T790M/C797S kinase inhibitory activity experiment
Conditions: in vitro
Threshold check on IC50: strictly below 1 nM is 1 (yes); on or above 1 nM is 0 (no).

1) CCc1cc(Nc2ncc(Cl)c(Nc3cc(C)c(C)cc3P(C)(C)=O)n2)c(OC)cc1N1CCC2(CC1)CC(N(C)C)C2 | 1 (yes)
2) CCc1cc(Nc2ncc(Cl)c(Nc3ccc(C)c(C)c3P(C)(C)=O)n2)c(OC)cc1N1CCC2(CC1)CN(COC)C2 | 0 (no)
3) COc1cc(N2CCC3(CC2)CC(N(C)C)C3)c(C)cc1Nc1ncc(Cl)c(Nc2cc(C)c(C)cc2P(C)(C)=O)n1 | 0 (no)
4) CCc1cc(Nc2ncc(Cl)c(Nc3cc(C)c(C)cc3P(C)(C)=O)n2)c(OC)cc1N1CCC(N2CCN(C)CC2)CC1 | 0 (no)
5) CCc1cc(Nc2ncc(Cl)c(Nc3ccc(C)c(C)c3P(C)(C)=O)n2)c(OC)cc1N1CCC(N2CC3CC(C2)N3C)CC1 | 1 (yes)
6) CCc1cc(Nc2ncc(Cl)c(Nc3cc(Cl)c(Cl)cc3P(C)(C)=O)n2)c(OC)cc1N1CC2(CCN(C)CC2)C1 | 1 (yes)
7) COc1cc(N2CC3(CCN(C)CC3)C2)c(Cl)cc1Nc1ncc(Cl)c(Nc2ccc(C)c(C)c2P(C)(C)=O)n1 | 1 (yes)
8) CCc1cc(Nc2ncc(Cl)c(Nc3ccc(C)c(C)c3P(C)(C)=O)n2)c(OC)cc1N1CCC(N2C[C@H]3CN(C)C[C@H]3C2)CC1 | 1 (yes)
9) CCc1cc(Nc2ncc(Cl)c(Nc3cc(C)c(C)cc3P(C)(C)=O)n2)c(OC)cc1N1CCC(N2CCOCC2)CC1 | 0 (no)
10) CCc1cc(Nc2ncc(Cl)c(Nc3ccc(C)c(C)c3P(C)(C)=O)n2)c(OC)cc1N1CCC2(CC1)CN(C(C)=O)C2 | 0 (no)
11) CCc1cc(Nc2ncc(Cl)c(Nc3cc(C)cc(C)c3P(C)(C)=O)n2)c(OC)cc1N1CCC2(CC1)CC(N(C)C)C2 | 0 (no)
12) CCN1CCC2(CC1)CN(c1cc(OC)c(Nc3ncc(Cl)c(Nc4ccc(C)c(C)c4P(C)(C)=O)n3)cc1C)C2 | 1 (yes)
13) COc1cc(N2CC3(CCN(C)CC3)C2)c(Cl)cc1Nc1ncc(Cl)c(Nc2cc(C)c(C)cc2P(C)(C)=O)n1 | 1 (yes)
14) CCc1cc(Nc2ncc(Cl)c(Nc3cc(Cl)c(Cl)cc3P(C)(C)=O)n2)c(OC)cc1N1CC2(CCN(C3CC3)CC2)C1 | 1 (yes)
15) COc1cc(N2CC3(CCC(N(C)C)CC3)C2)c(C)cc1Nc1ncc(Cl)c(Nc2ccc(C)c(C)c2P(C)(C)=O)n1 | 0 (no)
16) COc1cc(N2CCC3(CC2)CC(N(C)C)C3)c(Cl)cc1Nc1ncc(Cl)c(Nc2ccc(C)c(C)c2P(C)(C)=O)n1 | 1 (yes)
17) CCc1cc(Nc2ncc(Cl)c(Nc3ccc(C)c(C)c3P(C)(C)=O)n2)c(OC)cc1N1CC2(CCN(C)CC2)C1 | 1 (yes)
18) CCc1cc(Nc2ncc(Cl)c(Nc3ccccc3P(C)(C)=O)n2)c(OC)cc1N1CC2(CCN(C)CC2)C1 [Comparative Compound B, reference compound] | 0 (no)
19) CCc1cc(Nc2ncc(Cl)c(Nc3ccc(C)c(C)c3P(C)(C)=O)n2)c(OC)cc1N1CC2(CCC(CC#N)CC2)C1 | 0 (no)
20) COc1cc(N2CC3(CCN(C4CC4)CC3)C2)c(Cl)cc1Nc1ncc(Cl)c(Nc2cc(C)c(C)cc2P(C)(C)=O)n1 | 1 (yes)
21) COc1cc(N2CC3(CCC(CC#N)CC3)C2)c(Cl)cc1Nc1ncc(Cl)c(Nc2cc(C)c(C)cc2P(C)(C)=O)n1 | 0 (no)
22) CCc1cc(Nc2ncc(Cl)c(Nc3cccc(Cl)c3P(C)(C)=O)n2)c(OC)cc1N1CC2(CCN(C)CC2)C1 | 1 (yes)
23) COc1cc(N2CCC3(CCN(C)CC3)CC2)ccc1Nc1ncc(Cl)c(Nc2ccc(C)c(C)c2P(C)(C)=O)n1 | 0 (no)
24) CCc1cc(Nc2ncc(Cl)c(Nc3cccc(Cl)c3P(C)(C)=O)n2)c(OC)cc1N1CC2(CCN(CC)CC2)C1 | 1 (yes)
25) COc1cc(N2CCC3(CC2)CC(N(C)C)C3)ccc1Nc1ncc(Cl)c(Nc2cc(C)c(C)cc2P(C)(C)=O)n1 | 0 (no)
26) CCc1cc(Nc2ncc(Cl)c(Nc3cc(C)c(C)cc3P(C)(C)=O)n2)c(OC)cc1N1CCC(N2CC(N(C)C)C2)CC1 | 0 (no)
27) CCc1cc(Nc2ncc(Cl)c(Nc3cc(C)c(C)cc3P(C)(C)=O)n2)c(OC)cc1N1CC2(CCN(C)CC2)C1 | 1 (yes)
